- Study target: Aminopeptidase N (Plasmodium falciparum (isolate 3D7)) (UniProt O96935)
- Sequence (O96935 whole entry, looked up): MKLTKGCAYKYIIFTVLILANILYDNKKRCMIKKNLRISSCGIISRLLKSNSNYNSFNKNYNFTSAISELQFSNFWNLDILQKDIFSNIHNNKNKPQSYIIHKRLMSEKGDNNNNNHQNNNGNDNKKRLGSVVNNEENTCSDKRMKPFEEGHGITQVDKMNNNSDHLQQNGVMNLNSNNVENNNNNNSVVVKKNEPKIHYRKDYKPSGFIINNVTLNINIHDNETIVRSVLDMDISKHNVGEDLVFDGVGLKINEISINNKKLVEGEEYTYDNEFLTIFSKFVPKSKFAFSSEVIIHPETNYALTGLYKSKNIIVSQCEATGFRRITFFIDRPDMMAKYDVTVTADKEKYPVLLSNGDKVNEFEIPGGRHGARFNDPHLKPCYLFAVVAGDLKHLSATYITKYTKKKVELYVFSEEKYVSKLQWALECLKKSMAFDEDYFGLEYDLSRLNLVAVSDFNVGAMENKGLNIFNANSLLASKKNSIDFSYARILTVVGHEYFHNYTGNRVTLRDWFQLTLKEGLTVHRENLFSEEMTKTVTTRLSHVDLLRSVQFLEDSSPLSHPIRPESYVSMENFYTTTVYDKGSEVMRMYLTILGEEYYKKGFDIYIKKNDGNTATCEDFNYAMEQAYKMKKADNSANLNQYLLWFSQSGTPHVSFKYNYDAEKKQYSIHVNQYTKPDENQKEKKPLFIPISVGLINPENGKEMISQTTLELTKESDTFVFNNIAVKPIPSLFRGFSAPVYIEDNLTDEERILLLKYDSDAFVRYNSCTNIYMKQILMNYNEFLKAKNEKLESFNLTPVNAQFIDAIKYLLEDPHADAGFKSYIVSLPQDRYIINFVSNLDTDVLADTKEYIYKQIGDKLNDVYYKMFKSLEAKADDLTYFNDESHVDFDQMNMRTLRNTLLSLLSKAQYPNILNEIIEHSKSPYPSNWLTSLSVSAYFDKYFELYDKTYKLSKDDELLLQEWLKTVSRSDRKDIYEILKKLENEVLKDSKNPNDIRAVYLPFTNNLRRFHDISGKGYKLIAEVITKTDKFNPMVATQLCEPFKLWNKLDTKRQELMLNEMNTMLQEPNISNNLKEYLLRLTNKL
- Measurement protocol: malaria alanyl aminopeptidase activity blockers – biochemical, fluorogenic H-Leu-NHMec substrate, 1536-well (AID 1445);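 further: plate controls were DMSO full reaction for no effect and no enzyme background for full effect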
- Particulars: recombinant M1AAP, H-Leu-NHMec fluorogenic kinetic assay; at 30 µM, hits give high values unless noted
About 910 (0.41%) of roughly 220,000 compounds were called active. This is one part of a sample in which actives are shown more often than they occur. Measured potencies and affinities stand elsewhere.
Measured parameter: inhibition (%)
Entry rule: numbers only, all in %.

Ask: Reported inhibition for CCS(=O)(=O)Nc1ccc(-c2nc3cccnc3s2)cc1 : what is it?
Reply: 11.6

Ask: Can you share its inhibition? I mean this molecule: NC(=O)Cn1nc([N+](=O)[O-])nc1Oc1ccccc1C(=O)N1CCOCC1
Reply: 3.73

Ask: Look at this molecule and give its reported inhibition. O=C1OC(c2cccs2)=N/C1=C\c1ccc(-c2cccc(Cl)c2)o1
Reply: 24.5

Ask: Look up inhibition for this molecule: O=C(CCCCn1c(=O)[nH]c2ccccc2c1=O)NCCc1c[nH]c2ccccc12
Reply: 3.37

Ask: Please look up its inhibition: O=S(=O)(Nc1ccc(-c2nc3cccnc3s2)cc1)c1ccc(Cl)s1
Reply: 13.1

* * *

I'd appreciate it if you could supply inhibition values for the items below.
- Study target: Aminopeptidase N (Plasmodium falciparum (isolate 3D7)) (UniProt O96935)
- Measurement protocol: malaria alanyl aminopeptidase activity blockers – biochemical, fluorogenic H-Leu-NHMec substrate, 1536-well (AID 1445);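 further: plate controls were DMSO full reaction for no effect and no enzyme background for full effect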
- Particulars: recombinant M1AAP, H-Leu-NHMec fluorogenic kinetic assay; at 30 µM, hits give high values unless noted
Screen size: about 220,000 compounds; about 910 (0.41%) were called active. This excerpt belongs to a sample that is enriched for actives. Measured potencies and affinities stand elsewhere.
Number only, in %; omit the unit.

Ask: State the recorded inhibition for this entry: Nc1ccc(Nc2nc(-c3cc4ccccc4oc3=O)cs2)cc1
Reply: 6.86

Ask: Given the entry CCOc1cc(/C=C2\SC(=O)N(CC(=O)Nc3ccccc3F)C2=O)cc([N+](=O)[O-])c1O , report its measured inhibition.
Reply: 13.2

Ask: Would you kindly share the measured inhibition for C[C@H](NC(=O)c1ccco1)C(=O)Nc1ccc(S(=O)(=O)N2CCCC2)cc1 ?
Reply: -6.98

Ask: Recorded inhibition of O=C1/C(=C/c2ccc(O)c([N+](=O)[O-])c2)SC(=S)N1Cc1ccccc1 , please.
Reply: 10.2

Ask: Quick one: inhibition of Cc1cccc(N2C(N)=C(C#N)C(C#N)(C#N)C2c2ccccc2)c1 (configuration not stated) ?
Reply: 7.85

Ask: Suppose we examine the compound O=C(Nc1nc2ccccc2[nH]1)C1CC(=O)N(c2ccc3c(c2)OCCO3)C1 (configuration not stated) ; what inhibition value has been reported?
Reply: -0.34

Ask: Find the recorded inhibition belonging to O=C(NC(Cc1ccccc1)c1nc2ccccc2[nH]1)C1CC(=O)N(c2ccc3c(c2)OCCO3)C1 (configuration not stated) and report it.
Reply: 26

Ask: Quick one: inhibition of O=C1/C(=C/C=C/c2ccco2)SC(=S)N1c1ccc(O)cc1 ?
Reply: 15.5

Ask: If you can, please state the reported inhibition value of Cc1nc(-c2ccccc2O)n(-c2ccccc2)n1 .
Reply: 14.8

Ask: # input compound: Cc1cccc(-c2cc(N)n(-c3ccccc3)n2)c1 ; wanted: its inhibition
Reply: 15.4

Ask: May I ask what inhibition has been recorded for Cc1nn(-c2ccccc2)c(C)c1N ?
Reply: -5.19

Ask: inhibition for COc1ccccc1C(=O)NN1C(=O)/C(=C/c2cccn2C)SC1=S ?
Reply: 15.2

Ask: Which inhibition is listed for COc1cc(/C=C2\SC(=O)N(Cc3ccc(Cl)cc3)C2=O)cc([N+](=O)[O-])c1O ?
Reply: 29.4

Ask: Form field: reported inhibition of Cc1noc(NC(=O)c2ccccc2C(F)(F)F)c1C#N
Reply: -0.81

Ask: inhibition lookup needed for CC(C)c1ccc(S(=O)(=O)N2CCN(C(=O)c3ccco3)CC2)cc1 , thanks.
Reply: 0.71

Ask: Sample CSCCC(C(=O)Nc1ccc2c(c1)OCO2)N1C(=O)c2ccccc2C1=O (configuration not stated) — what was its inhibition?
Reply: 4.81

Ask: Quick check: inhibition of COC(=O)c1cc2oc(C)cc2n1CC(=O)N(C)c1ccccc1 ?
Reply: 24.4

Ask: What value of inhibition has been reported for the following compound? Cc1cccc(N(CC(=O)NC2CCCC2)C(=O)CS(=O)CC(=O)Nc2ccc3c(c2)OCO3)c1C (configuration not stated)
Reply: 6.68

Ask: So what does the record say about inhibition for O=C(NN1C(=O)/C(=C\c2ccc(O)c([N+](=O)[O-])c2)SC1=S)c1ccccc1Cl ?
Reply: 19.8

Ask: Report inhibition for CC(C(=O)O)N1C(=O)/C(=C/C=C/c2ccco2)SC1=S (configuration not stated) please.
Reply: 10.5

Ask: Which inhibition value is on record for O=C(NCCCc1ccccc1)C1CC(=O)N(c2ccc3c(c2)OCCO3)C1 (configuration not stated) ?
Reply: 2.32

Ask: Given the entry CC(C(=O)Nc1ccc(S(=O)(=O)N2CCCC2)cc1)N1CCN(C(=O)c2ccco2)CC1 (configuration not stated) , report its measured inhibition.
Reply: 35.6

Hey, just so you know, these numbers are from PubChem BioAssay AID1445.
